Data provenance is ChEMBL document CHEMBL3045222.

The following compounds are shown together with reported Time values.
system: Rattus norvegicus; experiment: Analgesic activity in Rattus norvegicus (rat) assessed as time taken to withdraw tail in response to heat stress at 50 mg/kg, po after 90 min by tail flick method based analgesiometer analysis (reference value: 6.00 +/-0.36 secs); format: functional
OBSERVABLE: Time (s)

INSERT INTO results (compound, observable, unit, value_measured) VALUES
  ('CCCCn1c(-c2c(O)ccc3ccccc23)nc2ccc([N+](=O)[O-])cc21', 'Time', 's', 6),
  ('COc1ccc2nc(-c3c(O)ccc4ccccc34)n(C)c2c1', 'Time', 's', 8.5),
  ('CCCCn1c(-c2c(O)ccc3ccccc23)nc2ccccc21', 'Time', 's', 9.66),
  ('CCCCn1c(-c2c(O)ccc3ccccc23)nc2ccc(OC)cc21', 'Time', 's', 7.66),
  ('Cn1c(-c2c(O)ccc3ccccc23)nc2ccccc21', 'Time', 's', 6),
  ('O=C(O)Cc1ccccc1Nc1c(Cl)cccc1Cl [DICLOFENAC]', 'Time', 's', 10),
  ('Cn1c(-c2c(O)ccc3ccccc23)nc2ccc([N+](=O)[O-])cc21', 'Time', 's', 6.83);

* * *

tested on: Rattus norvegicus; test: Analgesic activity in Rattus norvegicus (rat) assessed as time taken to withdraw tail in response to heat stress at 50 mg/kg, po after 60 min by tail flick method based analgesiometer analysis (reference value: 6.5 +/-0.22 secs); format: functional
OBSERVABLE: Time (s)

INSERT INTO results (compound, observable, unit, value_measured) VALUES
  ('Cn1c(-c2c(O)ccc3ccccc23)nc2ccc([N+](=O)[O-])cc21', 'Time', 's', 11.5),
  ('O=C(O)Cc1ccccc1Nc1c(Cl)cccc1Cl [DICLOFENAC]', 'Time', 's', 11.66),
  ('CCCCn1c(-c2c(O)ccc3ccccc23)nc2ccccc21', 'Time', 's', 10.5),
  ('Cn1c(-c2c(O)ccc3ccccc23)nc2ccccc21', 'Time', 's', 7),
  ('COc1ccc2nc(-c3c(O)ccc4ccccc34)n(C)c2c1', 'Time', 's', 10.33),
  ('CCCCn1c(-c2c(O)ccc3ccccc23)nc2ccc([N+](=O)[O-])cc21', 'Time', 's', 6.5),
  ('CCCCn1c(-c2c(O)ccc3ccccc23)nc2ccc(OC)cc21', 'Time', 's', 9.33);
